# Lookup of reported MAC Dep (nM), cyno serum, IC50 keyed by entry
- Target entity: cynomolgus complement C3b protein (cynomolgus monkey (Macaca fascicularis))
- Assay procedure: cell-based or functional assay
Numbers only here, please. The scale is nM.

Example results:
MOR09398 Fab (Fab, V domains shown, also called Fab 9398) VH: QVQLVESGGGLVQPGGSLRLSCAASGFTFSSYWMTWVRQAPGKGLEWVSSIKIKPDGYAASVKGRFTISRDNSKNTLYLQMNSLRAEDTAVYYCARLFYQYFARMDYWGQGTLVTVSS VL: DIQMTQSPSSLSASVGDRVTITCRASQDISNYLNWYQQKPGKAPKLLIYAASNLQSGVPSRFSGSGSGTDFTLTISSLQPEDFATYYCQQWDSFSPTFGQGTKVEIKR :: 5
MOR09136 Fab (Fab, V domains shown, also called Fab 9136) VH: QVQLVQSGAEVKKPGSSVKVSCKASGGTFSSYTFSWVRQAPGQGLEWMGNILPIFGDANYAQKFQGRVTITADESTSTAYMELSSLRSEDTAVYYCARNKGAFYYMSTYPSLDVWGQGTLVTVSS VL: DIQMTQSPSSLSASVGDRVTITCRASQNINYYLNWYQQKPGKAPKLLIYDAFSLQSGVPSRFSGSGSGTDFTLTISSLQPEDFATYYCQQSWSVPPFTFGQGTKVEIKR :: 3

Query :: Return reported MAC Dep (nM), cyno serum, IC50; argument: MOR09124 Fab (Fab, V domains shown, HCDR2-matured derivative of parental MOR08305) VH: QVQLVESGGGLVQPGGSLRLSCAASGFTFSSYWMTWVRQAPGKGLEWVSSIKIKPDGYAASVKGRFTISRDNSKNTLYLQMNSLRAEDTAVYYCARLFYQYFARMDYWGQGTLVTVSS VL: DIQMTQSPSSLSASVGDRVTITCRASQDISNYLNWYQQKPGKAPKLLIYAASNLQSGVPSRFSGSGSGTDFTLTISSLQPEDFATYYCQQYDSYSPTFGQGTKVEIKR
Result :: 5
